- measurement notes: in vivo
- protocol conditions: rat, CSF/plasma, po, 10 mg/kg
- Description: Ratio of drug level in CSF to plasma in rat at 10 mg/kg, po after 2 hrs
Label scheme for Kp at 2 h: lower than 0.1 is no (0), 0.1 and above is yes (1).

INPUT: Decide: Kp at 2 h of "O=C1O[C@]2(CC[C@H](C(=O)Nc3cnn(-c4ccccc4)n3)CC2)c2cnccc21" >= 0.1?
OUTPUT: no (0)

INPUT: Proceed to "O=C1O[C@]2(CC[C@H](C(=O)Nc3cnn(-c4ccccc4)c3)CC2)c2cccnc21"
OUTPUT: yes (1)

INPUT: Proceed to "O=C1O[C@]2(CC[C@H](C(=O)Nc3ccn(-c4ccccc4)n3)CC2)c2cnccc21"
OUTPUT: no (0)

INPUT: Proceed to "O=C1O[C@]2(CC[C@H](C(=O)Nc3ccn(-c4ccccc4)n3)CC2)c2cccnc21"
OUTPUT: yes (1)

INPUT: Proceed to "O=C1O[C@]2(CC[C@H](C(=O)Nc3cnn(-c4ccccc4)c3)CC2)c2cnccc21"
OUTPUT: yes (1)

---

- tested target: UniProt:Q15761
- Sequence (Q15761 whole entry): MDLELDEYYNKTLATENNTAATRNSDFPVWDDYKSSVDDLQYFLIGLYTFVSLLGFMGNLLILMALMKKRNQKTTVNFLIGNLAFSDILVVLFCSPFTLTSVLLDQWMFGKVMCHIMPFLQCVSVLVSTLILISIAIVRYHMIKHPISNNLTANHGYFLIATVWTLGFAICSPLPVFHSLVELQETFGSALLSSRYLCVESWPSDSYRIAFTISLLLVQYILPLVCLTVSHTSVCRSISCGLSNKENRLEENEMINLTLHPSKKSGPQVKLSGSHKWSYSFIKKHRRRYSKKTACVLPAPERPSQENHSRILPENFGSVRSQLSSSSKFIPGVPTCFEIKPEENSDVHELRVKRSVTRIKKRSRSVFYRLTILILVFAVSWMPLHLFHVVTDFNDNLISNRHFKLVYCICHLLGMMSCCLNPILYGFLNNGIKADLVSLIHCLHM
So I've got a bunch of compounds here, and I need their IC50 values.
Report the figure in nM without appending any unit label.

INPUT: State its IC50 on UniProt:Q15761: "O=C1O[C@]2(CC[C@H](C(=O)Nc3csc(-c4ccccc4)n3)CC2)c2cnccc21"
OUTPUT: 1.2

INPUT: Proceed to "O=C1O[C@]2(CC[C@H](C(=O)Nc3cc(-c4ccccc4)n[nH]3)CC2)c2ccncc21"
OUTPUT: 2.9

INPUT: Proceed to "O=C1O[C@]2(CC[C@H](C(=O)Nc3cnn(-c4ccccc4)c3)CC2)c2cccnc21"
OUTPUT: 1.3

INPUT: Proceed to "O=C1O[C@]2(CC[C@H](C(=O)Nc3cnn(-c4ccccc4)c3)CC2)c2cnccc21"
OUTPUT: 2.2

INPUT: Proceed to "O=C1O[C@]2(CC[C@H](C(=O)Nc3cc(-c4ccccc4)on3)CC2)c2cnccc21"
OUTPUT: 2.1

INPUT: Proceed to "O=C1O[C@]2(CC[C@H](C(=O)Nc3cnc(-c4ccccc4)cn3)CC2)c2ncccc21"
OUTPUT: 3.9

INPUT: Proceed to "O=C1O[C@]2(CC[C@H](C(=O)Nc3ccn(-c4cccc(F)c4)n3)CC2)c2cnccc21"
OUTPUT: 2

INPUT: Proceed to "O=C1O[C@]2(CC[C@H](C(=O)Nc3ccn(-c4ccc(F)cc4)n3)CC2)c2cnccc21"
OUTPUT: 0.92
